Known selective drug sensitivity score of a selection of compounds
Test system: KOPN-8;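 further: ALL cell lines in 384-well plates, five doses spanning 10,000-fold, each plate scaled between vehicle and 100 µmol/L benzalkonium chloride controls, sDSS an adapted area-under-curve metric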
procedureDetails: selective drug sensitivity score (sDSS, relative to normal bone marrow) (sDSS (score)); higher = more potent and effective on the cell line relative to normal bone marrow cells
testSettings: 72 h
Number only, no unit.

Solved cases (2 shown):
{"compound": "CCN(CC)CCOc1ccc(/C(=C(/Cl)c2ccccc2)c2ccccc2)cc1 [Clomifene] (top concentration 10000 nM)", "selective drug sensitivity score": 8.92}
{"compound": "CN(C)C(=N)NC(=N)N [Metformin] (top concentration 100000 nM)", "selective drug sensitivity score": -0.02}

Just so you know, measured selective drug sensitivity score for Clc1ccc(Nc2nnc(Cc3ccncc3)c3ccccc23)cc1 [Vatalanib] (top concentration 10000 nM) came out at 0

Just so you know, measured selective drug sensitivity score for Cc1cn(-c2cc(NC(=O)c3ccc(C)c(Nc4nccc(-c5cccnc5)n4)c3)cc(C(F)(F)F)c2)cn1 [Nilotinib] (top concentration 10000 nM) came out at 9.7
